Origin of the recorded values: paper PMC4167603

Biological target: GABAAR β3 homopentamer (GABAAR-β3cryst) (Homo sapiens, UniProt P28472, DEL333-446/INS332SQPARAA)
Test: thermostabilisation of purified receptor
Type: binding
OUTCOME_MEASURE: pEC50
Value format note: pEC50 is -log10 of concentration (mol/L); just state the number.

Exam item: What value of pEC50 has been reported for the following compound? NCCc1c[nH]cn1
Marked response: 3.40

----------
Target: GABAAR β3 homopentamer (GABAAR-β3cryst) (Homo sapiens, UniProt P28472, DEL333-446/INS332SQPARAA)
Test: X-ray co-crystal structure
Assay type: cell-based
OUTCOME_MEASURE: EC50 (µM)
// return numeric value only (unit: µM, not printed)

Exam item: Would you kindly share the measured EC50 for N=C(N)c1ccccc1 [benzamidine] ?
Marked response: 61

----------
Target: GABAAR β3 homopentamer (GABAAR-β3cryst) (Homo sapiens, UniProt P28472, DEL333-446/INS332SQPARAA)
Assay: thermostabilisation of purified receptor
Assay type: binding
OUTCOME_MEASURE: EC50
Write your answer as a measured quantity: the number, then the unit.

Exam item: // returns reported EC50 for input N#Cc1nn(-c2c(Cl)cc(C(F)(F)F)cc2Cl)c(N)c1[S+]([O-])C(F)(F)F (stereo not shown) [fipronil]
Marked response: 26 nM
